Cited source for all entries: patent US11877574B2

# test-name: Active ingredient assay and recovery on storage (Table 2)
# Format: physicochemical
# run-conditions: 3 month storage, 0° C.
Record form. Attribute: Assay (% w/w). Fill in for each entry.
Your answer should be a number followed by the unit of measure.

Dear colleague, please send me the reported Assay (% w/w) for CCCCC(CC)COC(=O)COc1ccc(Cl)cc1C (centres unmarked) when you can.
35.25 % w/w

Dear colleague, please send me the reported Assay (% w/w) for CCCCCC(C)OC(=O)COc1ccc(Cl)c2cccnc12 (centres unmarked) when you can.
0.41 % w/w

Dear colleague, please send me the reported Assay (% w/w) for COc1nn(C(=O)[N-]S(=O)(=O)c2ccccc2OC(F)(F)F)c(=O)n1C.[Na+] [Flucarbazone, Flucarbazone Sodium] when you can.
1.98 % w/w

Dear colleague, please send me the reported Assay (% w/w) for CCCCCCC(C)OC(=O)COc1nc(F)c(Cl)c(N)c1Cl (centres unmarked) when you can.
11.63 % w/w

Dear colleague, please send me the reported Assay (% w/w) for CCCCCCCC(=O)Oc1c(Br)cc(C#N)cc1Br [Bromoxynil, Bromoxynil Octanoate] when you can.
32.81 % w/w

###

# test-name: Active ingredient assay and recovery on storage (Table 2)
# Assay type: physicochemical
# run-conditions: initial
Record T whenever Assay (% w/w) is at 10 % w/w or higher; record F when lower.

Evaluate CCCCCC(C)OC(=O)COc1ccc(Cl)c2cccnc12 (centres unmarked) : Assay (% w/w) at minimum 10 % w/w?
F

Evaluate CCCCCCC(C)OC(=O)COc1nc(F)c(Cl)c(N)c1Cl (centres unmarked) : Assay (% w/w) at minimum 10 % w/w?
T

Evaluate CCCCCCCC(=O)Oc1c(Br)cc(C#N)cc1Br [Bromoxynil, Bromoxynil Octanoate] : Assay (% w/w) at minimum 10 % w/w?
T

Evaluate COc1nn(C(=O)[N-]S(=O)(=O)c2ccccc2OC(F)(F)F)c(=O)n1C.[Na+] [Flucarbazone, Flucarbazone Sodium] : Assay (% w/w) at minimum 10 % w/w?
F

Evaluate CCCCC(CC)COC(=O)COc1ccc(Cl)cc1C (centres unmarked) : Assay (% w/w) at minimum 10 % w/w?
T

###

# test-name: Active ingredient assay on storage, SCB239-12 (Table 3)
# Format: physicochemical
# run-conditions: 2 month storage, 0° C.
Record form. Attribute: Assay (% w/w). Fill in for each entry.
Numbers only; they are read as % w/w.

Dear colleague, please send me the reported Assay (% w/w) for CCCCCC(C)OC(=O)COc1ccc(Cl)c2cccnc12 (centres unmarked) when you can.
0.36

Dear colleague, please send me the reported Assay (% w/w) for CCCCC(CC)COC(=O)COc1ccc(Cl)cc1C (centres unmarked) when you can.
34.07

Dear colleague, please send me the reported Assay (% w/w) for CCCCCCC(C)OC(=O)COc1nc(F)c(Cl)c(N)c1Cl (centres unmarked) when you can.
11.19

Dear colleague, please send me the reported Assay (% w/w) for CCCCCCCC(=O)Oc1c(Br)cc(C#N)cc1Br [Bromoxynil, Bromoxynil Octanoate] when you can.
30.30

###

# test-name: Active ingredient assay and recovery on storage (Table 2)
# Type: physicochemical
# run-conditions: 2 month storage, 40° C.
assay-readout: Assay (% w/w)
Numbers only; they are read as % w/w.

Dear colleague, please send me the reported Assay (% w/w) for COc1nn(C(=O)[N-]S(=O)(=O)c2ccccc2OC(F)(F)F)c(=O)n1C.[Na+] [Flucarbazone, Flucarbazone Sodium] when you can.
1.91

Dear colleague, please send me the reported Assay (% w/w) for CCCCC(CC)COC(=O)COc1ccc(Cl)cc1C (centres unmarked) when you can.
34.90

Dear colleague, please send me the reported Assay (% w/w) for CCCCCCC(C)OC(=O)COc1nc(F)c(Cl)c(N)c1Cl (centres unmarked) when you can.
11.56

Dear colleague, please send me the reported Assay (% w/w) for CCCCCCCC(=O)Oc1c(Br)cc(C#N)cc1Br [Bromoxynil, Bromoxynil Octanoate] when you can.
30.78

Dear colleague, please send me the reported Assay (% w/w) for CCCCCC(C)OC(=O)COc1ccc(Cl)c2cccnc12 (centres unmarked) when you can.
0.40
